target: recombinant human His-ATG7 enzyme (Homo sapiens (Human), UniProt O95352); experiment: ATG7 Enzyme Assay (HTRF/FRET, ATG3-GST and Flag-Gabarap)
Sequence (O95352 whole entry): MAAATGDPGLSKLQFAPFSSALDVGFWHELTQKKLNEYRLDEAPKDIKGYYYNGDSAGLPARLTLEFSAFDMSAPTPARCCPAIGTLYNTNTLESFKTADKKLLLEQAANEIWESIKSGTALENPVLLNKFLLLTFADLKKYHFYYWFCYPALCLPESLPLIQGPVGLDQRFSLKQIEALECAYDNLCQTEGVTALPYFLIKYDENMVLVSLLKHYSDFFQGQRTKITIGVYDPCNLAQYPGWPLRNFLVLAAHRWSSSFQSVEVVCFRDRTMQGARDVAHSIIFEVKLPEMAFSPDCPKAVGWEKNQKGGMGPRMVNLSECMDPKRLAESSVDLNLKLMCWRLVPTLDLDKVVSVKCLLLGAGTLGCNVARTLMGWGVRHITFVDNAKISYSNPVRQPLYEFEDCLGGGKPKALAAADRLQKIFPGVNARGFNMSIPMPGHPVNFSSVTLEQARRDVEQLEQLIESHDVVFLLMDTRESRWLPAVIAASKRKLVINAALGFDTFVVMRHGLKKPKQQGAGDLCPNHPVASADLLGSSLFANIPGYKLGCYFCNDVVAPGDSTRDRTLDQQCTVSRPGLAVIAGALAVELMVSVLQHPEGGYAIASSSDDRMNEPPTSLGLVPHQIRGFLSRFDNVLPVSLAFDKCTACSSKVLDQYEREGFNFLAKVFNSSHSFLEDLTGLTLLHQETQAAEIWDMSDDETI
reported.property: IC50

query.smiles: Nc1ncnc2c1c(Sc1ccc(Cl)cc1Cl)nn2[C@@H]1O[C@H](COS(N)(=O)=O)[C@@H](O)[C@H]1O
assay.result: 50 to 100 nM
//
query.smiles: Nc1ncnc2c1c(Sc1ccncc1)nn2[C@@H]1O[C@H](COS(N)(=O)=O)[C@@H](O)[C@@H]1F
assay.result: 100 to 500 nM
//
query.smiles: Nc1ncnc2c1c(SCc1ccccc1)nn2[C@H]1C[C@H](O)[C@H](COS(N)(=O)=O)O1
assay.result: 100 to 500 nM

----------
Molecular target: recombinant human His-ATG7 enzyme (Homo sapiens (Human))
Experiment: ATG7 Enzyme Assay (HTRF/FRET, ATG3-GST and Flag-Gabarap)
Assay type: biochemical
Settings: Concentration 0.123 μM; read-out: Percent Inhibition
Description: Example 97: ATG7 Enzyme Assay The total volume of the ATG7 enzymatic assay is 50 μL and contains 50 mM HEPES Hemisodium (pH 7.5), 0.05% BSA, 0.01% Tween-20, 25 mM NaCl, 5 mM MgCl2, 10 μM ATP, 250 μM GSH, 5 nM ATG3-GST, 5 nM Flag-Gabarap, 100 μM TCEP and 0.15 nM recombinant human His-ATG7 enzyme. […] After incubation for 2 hours at 24° C., quantification of FRET is performed on the Pherostar™ (BMG Labtech). […]
// label = t if inhibition at 0.123 µM is not less than 80%, otherwise f

compound: Nc1ncnc2c1c(SCc1cccc3ccccc13)nn2[C@@H]1O[C@H](COS(N)(=O)=O)[C@@H](O)[C@H]1O
class.name: f
//
compound: CC(C)(O)CSc1nn([C@@H]2O[C@H](COS(N)(=O)=O)[C@@H](O)[C@H]2O)c2ncnc(N)c12
class.name: f
//
compound: COCc1nn([C@@H]2O[C@H](COS(N)(=O)=O)[C@@H](O)[C@H]2O)c2ncnc(N)c12
class.name: f
//
compound: Nc1ncnc2c1c(SCc1ccccc1)nn2[C@@H]1O[C@H](COS(N)(=O)=O)[C@@H](O)[C@H]1O
class.name: t
//
compound: C#CCSc1nn([C@@H]2O[C@H](COS(N)(=O)=O)[C@@H](O)[C@H]2O)c2ncnc(N)c12
class.name: f
//
compound: CC(C)Sc1nn([C@@H]2O[C@@H](COS(N)(=O)=O)[C@@H](O)[C@H]2O)c2ncnc(N)c12
class.name: f
//
compound: N#CCSc1nn([C@@H]2O[C@H](COS(N)(=O)=O)[C@@H](O)[C@H]2O)c2ncnc(N)c12
class.name: t
//
compound: Nc1ncnc2c1c(Sc1cccc3ccccc13)nn2[C@@H]1O[C@H](COS(N)(=O)=O)[C@@H](O)[C@H]1O
class.name: f
//
compound: COc1ccc(CSc2nn([C@@H]3O[C@H](COS(N)(=O)=O)[C@@H](O)[C@H]3O)c3ncnc(N)c23)cc1
class.name: t
//
compound: CC(Sc1nn([C@@H]2O[C@H](COS(N)(=O)=O)[C@@H](O)[C@H]2O)c2ncnc(N)c12)c1ccccc1 (mixture of isomers)
class.name: f

----------
IC50 reference
molecular target: recombinant human His-ATG7 enzyme (Homo sapiens (Human), UniProt O95352); experiment: ATG7 Enzyme Assay (HTRF/FRET, ATG3-GST and Flag-Gabarap); assay type: biochemical
reported.property: IC50

molecule: CC(=O)c1nn([C@@H]2O[C@H](COS(N)(=O)=O)[C@@H](O)[C@H]2O)c2ncnc(N)c12
study.system: recombinant human His-ATG7 enzyme (Homo sapiens (Human), UniProt O95352)
assay.result: 0.1 to 0.5 µM

molecule: COCC#Cc1nn([C@@H]2O[C@H](COS(N)(=O)=O)[C@@H](O)[C@H]2O)c2ncnc(N)c12
study.system: recombinant human His-ATG7 enzyme (Homo sapiens (Human), UniProt O95352)
assay.result: > 0.5 µM

molecule: Nc1ncnc2c1c(SCc1cccc3ccccc13)nn2[C@@H]1O[C@H](COS(N)(=O)=O)[C@@H](O)[C@H]1O
study.system: recombinant human His-ATG7 enzyme (Homo sapiens (Human), UniProt O95352)
assay.result: 0.05 to 0.1 µM

molecule: Nc1ncnc2c1c(Sc1ccc(F)cc1)nn2[C@@H]1O[C@H](COS(N)(=O)=O)[C@@H](O)[C@@H]1F
study.system: recombinant human His-ATG7 enzyme (Homo sapiens (Human), UniProt O95352)
assay.result: 0.02 to 0.05 µM

molecule: Cc1cccc(CSc2nn([C@@H]3O[C@H](COS(N)(=O)=O)[C@@H](O)[C@H]3O)c3ncnc(N)c23)c1
study.system: recombinant human His-ATG7 enzyme (Homo sapiens (Human), UniProt O95352)
assay.result: 0.02 to 0.05 µM

molecule: CC(O)CSc1nn([C@@H]2O[C@H](COS(N)(=O)=O)[C@@H](O)[C@H]2O)c2ncnc(N)c12 (single isomer, unassigned) [Compound I-55b]
study.system: recombinant human His-ATG7 enzyme (Homo sapiens (Human), UniProt O95352)
assay.result: 0.05 to 0.1 µM

molecule: CCSc1nn([C@@H]2O[C@H](COS(N)(=O)=O)[C@@H](O)[C@H]2O)c2ncnc(N)c12
study.system: recombinant human His-ATG7 enzyme (Homo sapiens (Human), UniProt O95352)
assay.result: 0.02 to 0.05 µM

molecule: Nc1ncnc2c1c(SC(F)F)nn2[C@H]1C[C@H](O)[C@@H](COS(N)(=O)=O)O1
study.system: recombinant human His-ATG7 enzyme (Homo sapiens (Human), UniProt O95352)
assay.result: 0.05 to 0.1 µM

molecule: Nc1ncnc2c1c(OC(F)F)nn2[C@@H]1O[C@H](COS(N)(=O)=O)[C@@H](O)[C@H]1O
study.system: recombinant human His-ATG7 enzyme (Homo sapiens (Human), UniProt O95352)
assay.result: 0.02 to 0.05 µM

molecule: Nc1ncnc2c1c(-c1ncco1)nn2[C@@H]1O[C@H](COS(N)(=O)=O)[C@@H](O)[C@H]1O
study.system: recombinant human His-ATG7 enzyme (Homo sapiens (Human), UniProt O95352)
assay.result: > 0.5 µM
